tested on: Escherichia coli TOP10; test: shrunken log2 fold change of peptide-encoding DNA abundance (4.5 h post-induction vs induction); higher = less antimicrobial activity (less host growth inhibition); details: time post-induction: 4.5 h; library: site-saturation at positions 5, 18, 19, 20
Measured shrunken log2 fold change determines class: low: < -0.09; moderate: ≥ -0.09 and < 0.2; high: ≥ 0.2

record_sequence=RRIRDRPPRLPRPRPRPGAAPRP class_name=high
record_sequence=RRIRQRPPRLPRPRPRPQRRPRP class_name=moderate
record_sequence=RRIRSRPPRLPRPRPRPWVLPRP class_name=high
record_sequence=RRIRTRPPRLPRPRPRPATYPRP class_name=low
record_sequence=RRIRARPPRLPRPRPRPGWFPRP class_name=high

Exercise: Hi there! Could you help me figure out the category for "RRIRWRPPRLPRPRPRPHKRPRP" please?
Key: moderate

Exercise: Hi there! Could you help me figure out the category for "RRIRCRPPRLPRPRPRPPAIPRP" please?
Key: high

Exercise: Hi there! Could you help me figure out the category for "RRIRMRPPRLPRPRPRPQFMPRP" please?
Key: low

Exercise: Hi there! Could you help me figure out the category for "RRIRPRPPRLPRPRPRPEAGPRP" please?
Key: high

Exercise: Hi there! Could you help me figure out the category for "RRIRYRPPRLPRPRPRPENDPRP" please?
Key: low

Exercise: Hi there! Could you help me figure out the category for "RRIRQRPPRLPRPRPRPVWYPRP" please?
Key: low

Exercise: Hi there! Could you help me figure out the category for "RRIRHRPPRLPRPRPRPNACPRP" please?
Key: moderate

Exercise: Hi there! Could you help me figure out the category for "RRIRGRPPRLPRPRPRPGRFPRP" please?
Key: high

Exercise: Hi there! Could you help me figure out the category for "RRIRFRPPRLPRPRPRPGQAPRP" please?
Key: moderate

Exercise: Hi there! Could you help me figure out the category for "RRIRVRPPRLPRPRPRPLVLPRP" please?
Key: low

* * *

system: Escherichia coli TOP10; assay: shrunken log2 fold change of peptide-encoding DNA abundance (4.5 h post-induction vs induction); higher = less antimicrobial activity (less host growth inhibition); conditions: time post-induction: 4.5 h; library: site-saturation at positions 5, 18, 19, 20;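 note: peptides expressed intracellularly from a pBAD plasmid library in pooled LB shake-flask culture, induced with 0.3% L-arabinose, DNA abundance read by NGS, three biological replicates, DESeq2 with apeglm shrinkage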
METRIC_NAME: shrunken log2 fold change
Please give the numeric answer without any surrounding text.

Consider the worked cases shown below.
record_sequence=RRIRARPPRLPRPRPRPDFAPRP metric_name="shrunken log2 fold change" observed_measurement=0.533
record_sequence=RRIRARPPRLPRPRPRPPIVPRP metric_name="shrunken log2 fold change" observed_measurement=-0.0791
record_sequence=RRIRTRPPRLPRPRPRPCMMPRP metric_name="shrunken log2 fold change" observed_measurement=-0.52
record_sequence=RRIRYRPPRLPRPRPRPCGTPRP metric_name="shrunken log2 fold change" observed_measurement=-0.193
record_sequence=RRIRIRPPRLPRPRPRPRKCPRP metric_name="shrunken log2 fold change" observed_measurement=-0.599
record_sequence=RRIRVRPPRLPRPRPRPPPYPRP metric_name="shrunken log2 fold change" observed_measurement=0.233
record_sequence=RRIRSRPPRLPRPRPRPKFEPRP metric_name="shrunken log2 fold change" observed_measurement=0.12
record_sequence=RRIRQRPPRLPRPRPRPDWPPRP metric_name="shrunken log2 fold change" observed_measurement=0.416
record_sequence=RRIRMRPPRLPRPRPRPKISPRP metric_name="shrunken log2 fold change" observed_measurement=0.0938
record_sequence=RRIRVRPPRLPRPRPRPETCPRP metric_name="shrunken log2 fold change" observed_measurement=0.437

Exercise: State shrunken log2 fold change on Escherichia coli TOP10. Entry: "RRIRTRPPRLPRPRPRPLVNPRP"
Key: -0.559

Exercise: State shrunken log2 fold change on Escherichia coli TOP10. Entry: "RRIRKRPPRLPRPRPRPHCGPRP"
Key: -0.0593

Exercise: State shrunken log2 fold change on Escherichia coli TOP10. Entry: "RRIRCRPPRLPRPRPRPEYLPRP"
Key: -0.258

Exercise: State shrunken log2 fold change on Escherichia coli TOP10. Entry: "RRIRDRPPRLPRPRPRPMMQPRP"
Key: 0.0408

Exercise: State shrunken log2 fold change on Escherichia coli TOP10. Entry: "RRIRYRPPRLPRPRPRPKPMPRP"
Key: 0.0517
